test: Brain penetration (Kp,uu) in CD-1 mice, with plasma and brain tissue binding by equilibrium dialysis; type: in vivo; details: mouse, brain and plasma (unbound), male CD-1 mice, single IV bolus 1 mg/kg
measured parameter: Kp uu

Observe how each entry below is paired with its result.
Prompt: What measured Kp uu goes with [2H]C([2H])([2H])c1n[nH]c2c1N=C(c1c(F)cccc1F)Nc1cnc(N3CCOCC3)cc1-2 [Example 32] ?
Response: 0.2 to 0.4

Prompt: What measured Kp uu goes with Cc1n[nH]c2c1N=C(c1c(F)cccc1F)Nc1c-2cc(N2CCN(CC(C)F)CC2)nc1C (racemic) [Example 20] ?
Response: 0.2 to 0.4

Prompt: What measured Kp uu goes with Cc1n[nH]c2c1N=C(c1c(F)cccc1F)Nc1c-2cc(N2CCN(CCF)C[C@H]2C)nc1C (single isomer, unassigned) [Example 18] ?
Response: > 0.4

Prompt: What measured Kp uu goes with Cc1n[nH]c2c1N=C(c1c(F)cccc1F)Nc1c-2cc(N2CCOCC2)nc1C [Example 8] ?
Response: 0.2 to 0.4

Prompt: What measured Kp uu goes with [2H]C1([2H])OC([2H])([2H])C([2H])([2H])N(c2ccc3c(c2)-c2[nH]nc(C)c2N=C(c2c(F)cccc2F)N3)C1([2H])[2H] [Example 22] ?
Response: < 0.2

Please report Kp uu for every entry that follows.
1. Cc1n[nH]c2c1N=C(c1c(F)cccc1F)Nc1ccc(N3CCN(C)C(C(F)(F)F)C3)cc1-2 (stereo not shown) [Example 6]
2. Cc1n[nH]c2c1N=C(c1c(F)cccc1F)Nc1c-2cc(N2CCC[C@@]3(CCOC3)C2)nc1C (single isomer, unassigned) [Example 49]

Response:
0.2 to 0.4
0.2 to 0.4

----------
assay: Human hepatocyte stability, in vitro h-Hept CLpredict; format: in vitro ADME; details: cryopreserved hepatocytes, predicted hepatic clearance, cells without asterisk, read-out: hHep Cl
measured parameter: CLhep predicted at 1 µM

Observe how each entry below is paired with its result.
Prompt: What measured CLhep predicted at 1 µM goes with Cc1n[nH]c2c1N=C(c1c(F)cccc1F)Nc1cnc(-n3ccc(C(F)(F)F)n3)cc1-2 [Example 15] ?
Response: 6.3 to 14.7 mL/min/kg

Prompt: What measured CLhep predicted at 1 µM goes with Cc1n[nH]c2c1N=C(c1c(F)cccc1F)Nc1cnc(N3CCC(F)CC3)cc1-2 [Example 3] ?
Response: 6.3 to 14.7 mL/min/kg

Prompt: What measured CLhep predicted at 1 µM goes with Cc1n[nH]c2c1N=C(c1c(F)cccc1F)Nc1ccc(N3CCOCC3)cc1-2 [Example 29] ?
Response: 6.3 to 14.7 mL/min/kg

Prompt: What measured CLhep predicted at 1 µM goes with Cc1n[nH]c2c1N=C(c1c(F)cccc1F)Nc1cc(F)c(N3CCOCC3)cc1-2 [Example 28] ?
Response: < 6.3 mL/min/kg

Prompt: What measured CLhep predicted at 1 µM goes with Cc1n[nH]c2c1N=C(c1c(F)cccc1F)Nc1c-2cc(N2CCOCC2)nc1C [Example 8] ?
Response: 6.3 to 14.7 mL/min/kg

Prompt: What measured CLhep predicted at 1 µM goes with Cc1n[nH]c2c1N=C(c1c(F)cccc1F)Nc1c-2cc(N2CCN(CC(F)F)CC2)nc1C [Example 19] ?
Response: 6.3 to 14.7 mL/min/kg

Prompt: What measured CLhep predicted at 1 µM goes with Cc1n[nH]c2c1N=C(c1c(F)cccc1F)Nc1c-2cc(N2CCN(CCF)C[C@H]2C)nc1C (single isomer, unassigned) [Example 18] ?
Response: 6.3 to 14.7 mL/min/kg

Prompt: What measured CLhep predicted at 1 µM goes with Cc1cc(-c2ccc3c(c2)-c2[nH]nc(C)c2N=C(c2c(F)cccc2F)N3)ccn1 [Example 52] ?
Response: 6.3 to 14.7 mL/min/kg

Prompt: What measured CLhep predicted at 1 µM goes with Cc1n[nH]c2c1N=C(c1c(F)cccc1F)Nc1c-2cc(N2CCC(C)(C#N)CC2)nc1C [Example 43] ?
Response: 6.3 to 14.7 mL/min/kg

Prompt: What measured CLhep predicted at 1 µM goes with Cc1n[nH]c2c1N=C(c1c(F)cccc1F)Nc1cnc(-c3cnn(C(F)F)c3)cc1-2 [Example 1] ?
Response: < 6.3 mL/min/kg

Please report CLhep predicted at 1 µM for every entry that follows.
1. Cc1n[nH]c2c1N=C(c1c(F)cccc1F)Nc1cnc(NCc3ccc(F)cc3F)cc1-2 [Example 16]
2. Cc1n[nH]c2c1N=C(c1c(F)cccc1F)Nc1c-2cc(N2CCN(CCF)CC2)nc1C [Example 9]
3. CCc1n[nH]c2c1N=C(c1c(F)cccc1F)Nc1cnc(N3CCOCC3)cc1-2 [Example 31]

Response:
1. 6.3 to 14.7 mL/min/kg
2. < 6.3 mL/min/kg
3. < 6.3 mL/min/kg

----------
test: Human hepatocyte stability, in vitro h-Hept CLpredict; format: in vitro ADME; conditions: cryopreserved hepatocytes, predicted hepatic clearance, cells without asterisk, read-out: hHep Cl
Would you kindly list CLhep predicted at 1 µM for each of these compounds?

Prompt: What measured CLhep predicted at 1 µM goes with Cc1n[nH]c2c1N=C(c1c(F)cccc1F)Nc1cnc(-c3ccc(C(F)(F)F)nc3)cc1-2 [Example 58] ?
Response: 6.3 to 14.7 mL/min/kg

Prompt: What measured CLhep predicted at 1 µM goes with Cc1n[nH]c2c1N=C(c1c(F)cccc1F)Nc1c-2cc(N2C[C@H](C)O[C@@H](C)C2)nc1C [Example 39] ?
Response: 6.3 to 14.7 mL/min/kg

Prompt: What measured CLhep predicted at 1 µM goes with CCOC[C@H]1CN(c2cc3c(c(C)n2)NC(c2c(F)cccc2F)=Nc2c(C)n[nH]c2-3)CCO1 [Example 51] ?
Response: 6.3 to 14.7 mL/min/kg

Prompt: What measured CLhep predicted at 1 µM goes with COC[C@@H]1CN(c2cc3c(c(C)n2)NC(c2c(F)cccc2F)=Nc2c(C)n[nH]c2-3)CCO1 [Example 46] ?
Response: < 6.3 mL/min/kg

Prompt: What measured CLhep predicted at 1 µM goes with Cc1n[nH]c2c1N=C(c1c(F)cccc1F)N1CCc3nc(N4CCOCC4)cc-2c31 [Example 42] ?
Response: 6.3 to 14.7 mL/min/kg

Turning now to a further record.
Prompt: What measured CLhep predicted at 1 µM goes with Cn1nccc1-c1cc2c(cn1)NC(c1c(F)cccc1F)=Nc1c(Cl)n[nH]c1-2 [Example 59] ?
Response: 6.3 to 14.7 mL/min/kg
